Experiment: molar heat capacity at constant pressure
Settings: 326.65 K; 101.33 kPa; Liquid
Class (by molar heat capacity at constant pressure) -- b0: < 200 J/K/mol; b1: ≥ 200 J/K/mol and < 300 J/K/mol; b2: ≥ 300 J/K/mol

- compound: "CCCCCCBr [1-bromohexane]"
  classification: "b1"
- compound: "CCCCCCCCCCCl [1-chlorodecane]"
  classification: "b2"
- compound: "CCCBr [1-bromopropane]"
  classification: "b0"
- compound: "CCCCCCCl [1-chlorohexane]"
  classification: "b1"
- compound: "CCCCCl [1-chlorobutane]"
  classification: "b0"
- compound: "CCCCBr [1-bromobutane]"
  classification: "b0"
- compound: "CCCCCCCCCl [1-chlorooctane]"
  classification: "b1"
- compound: "CCCCCCCCl [1-chloroheptane]"
  classification: "b1"
- compound: "CCCCCCCCCBr [1-bromononane]"
  classification: "b2"
- compound: "CCCCCCCCCCBr [1-bromodecane]"
  classification: "b2"
- compound: "CCCCCCCBr [1-bromoheptane]"
  classification: "b1"

---

Test: molar heat capacity at constant pressure
Details: 344.15 K; 101.33 kPa; Liquid
Entries annotated with measured molar heat capacity at constant pressure

- given_smiles: "CCCCCCl"
  molar heat capacity at constant pressure (J/K/mol): 201.19
- given_smiles: "CCCCCCBr"
  molar heat capacity at constant pressure (J/K/mol): 234.73
- given_smiles: "CCCCCCCCCCBr"
  molar heat capacity at constant pressure (J/K/mol): 362.13
- given_smiles: "CCCCCCCCCCCl"
  molar heat capacity at constant pressure (J/K/mol): 357.74
- given_smiles: "CCCCCCCCCBr"
  molar heat capacity at constant pressure (J/K/mol): 329.39
- given_smiles: "CCCCBr"
  molar heat capacity at constant pressure (J/K/mol): 173.26
- given_smiles: "CCCCCCCl"
  molar heat capacity at constant pressure (J/K/mol): 231.83
- given_smiles: "CCCCCCCBr"
  molar heat capacity at constant pressure (J/K/mol): 266.52
- given_smiles: "CCCCCBr"
  molar heat capacity at constant pressure (J/K/mol): 204.33
- given_smiles: "CCCCCCCCCl"
  molar heat capacity at constant pressure (J/K/mol): 294.16
- given_smiles: "CCCCCl"
  molar heat capacity at constant pressure (J/K/mol): 170.43
- given_smiles: "CCCCCCCCl"
  molar heat capacity at constant pressure (J/K/mol): 262.9

---

Test: molar heat capacity at constant pressure
Details: 351.65 K; 101.33 kPa; Liquid
endpoint: molar heat capacity at constant pressure (J/K/mol)

- given_smiles: "CCCCCCCCCBr"
  measurement: 333.04
- given_smiles: "CCCCCCCCCCBr"
  measurement: 366.38
- given_smiles: "CCCCCl"
  measurement: 173.02
- given_smiles: "CCCCCCCCl"
  measurement: 266.04
- given_smiles: "CCCCBr"
  measurement: 175.19
- given_smiles: "CCCCCCBr"
  measurement: 237.39
- given_smiles: "CCCCCCl"
  measurement: 203.57
- given_smiles: "CCCCCCCl"
  measurement: 234.56
- given_smiles: "CCCCCCCCCl"
  measurement: 297.21
- given_smiles: "CCCCCBr"
  measurement: 206.69
- given_smiles: "CCCCCCCCCCCl"
  measurement: 361.49
- given_smiles: "CCCCCCCBr"
  measurement: 269.51
